All figures here come from patent US9334487B2.

# System: serum IgG of RA patients, disease controls and healthy controls
# protocol_text: ELISA for IgG antibodies to cyclic α-enolase peptides, UK cohort sera
# Assay type: binding, human
# condition_summary: UK cohort RA sera; cut-off OD450 = 0.1
# Description: […] 96-well plates (Maxisorp; Nunc, Roskilde, Denmark) were coated with α-enolase peptides at 10 μg/ml (diluted in a 50 mM carbonate buffer, pH 9.6), or with carbonate buffer alone, and incubated over night at 4° C. […] After a final wash (PBS-Tween, 0.05%), bound antibodies were detected with TMB substrate (KPL, Maryland, USA). The reaction was stopped by the addition of 1M H2SO4 and absorbance measured at 450 nm in a Multiscan Ascent microplate reader (Thermo Labsystems). […]
Bridges are numbered along the chain shown (N, C = ends). Where no end group is shown, it is not given here. [ ]: non-standard residue; d: D form. Cit = NC(=O)NCCC[C@H](N)C(=O)O
reported_endpoint: % positive, RA (n = 102) (%)
// note: answer is a bare numeric in %

Suppose we examine the substance cyealel-X-dndkt-X-ymgkgvskc (CYEALEL[Cit]DNDKT[Cit]YMGKGVSKC; disulfide 1-23 (inferred); listed as Homo sapiens) [Peptide 3, human α-enolase aa 44-64] ; what % positive, RA (n = 102) value has been reported? 15

---
Suppose we examine the substance cnpk-X-iakavnekscncllc (CNPK[Cit]IAKAVNEKSCNCLLC; also: cyclic via terminal Cys, bond and pairing not given here; listed as Homo sapiens) [Peptide 11, human α-enolase aa 324-341] ; what % positive, RA (n = 102) value has been reported? 18

Next substance up: ckiha-X-eifds-R-gnptvec (CKIHA[Cit]EIFDSRGNPTVEC; disulfide 1-19 (inferred); listed as Homo sapiens) [Peptide 1C] 20
